Entry source: the CombiSolv-Exp solvation set (Vermeire and Green 2021)

- method: solvent given as SMILES
- condition.set: in CCC(C)=O
# maps each entry to its solvation free energy, 298 K
measurement.type: solvation free energy, 298 K (kcal/mol)

INSERT INTO results (smiles_entry, measurement_type, test_result) VALUES
  ('[N-]=[N+]=O', 'solvation free energy, 298 K', -0.94),
  ('CC(C)(C)Cl', 'solvation free energy, 298 K', -3.66),
  ('CCCC(C)C', 'solvation free energy, 298 K', -3.27),
  ('CC[N+](=O)[O-]', 'solvation free energy, 298 K', -5.25),
  ('CCCCCCCCCCCCCCCCCCCCCCCC', 'solvation free energy, 298 K', -14.8),
  ('C1CCCCC1', 'solvation free energy, 298 K', -3.79),
  ('O=O', 'solvation free energy, 298 K', 0.76),
  ('CCC=O', 'solvation free energy, 298 K', -3.85),
  ('CC(C)CC(C)(C)C', 'solvation free energy, 298 K', -4.05),
  ('CC(C)OC(C)C', 'solvation free energy, 298 K', -3.9),
  ('COc1cc(C(C)=O)ccc1O', 'solvation free energy, 298 K', -12.2),
  ('CCCCCCCCCCCCc1ccccc1', 'solvation free energy, 298 K', -11.5),
  ('O=C=O', 'solvation free energy, 298 K', -0.98),
  ('c1ccccc1', 'solvation free energy, 298 K', -4.49),
  ('CC(=O)Oc1ccccc1C(=O)O', 'solvation free energy, 298 K', -13.7),
  ('CCCOCCC', 'solvation free energy, 298 K', -4.37),
  ('Cc1ccccc1', 'solvation free energy, 298 K', -5.07),
  ('COC(=O)c1cc(OC)c(O)c(-c2cc(C(=O)OC)cc(OC)c2O)c1', 'solvation free energy, 298 K', -20.8),
  ('ClCCCl', 'solvation free energy, 298 K', -4.79),
  ('CCBr', 'solvation free energy, 298 K', -3.53),
  ('CCCO', 'solvation free energy, 298 K', -4.97),
  ('C=CCCC', 'solvation free energy, 298 K', -2.88),
  ('CC(C)CO', 'solvation free energy, 298 K', -5.43),
  ('CC(C)CC(C)C', 'solvation free energy, 298 K', -3.66),
  ('CCCCCCCCCCCCCCCCCCO', 'solvation free energy, 298 K', -13.8),
  ('S=C=S', 'solvation free energy, 298 K', -3.1),
  ('COc1cc(C=O)cc(-c2cc(C=O)cc(OC)c2O)c1O', 'solvation free energy, 298 K', -21.9),
  ('O=C(C(=O)c1ccccc1)c1ccccc1', 'solvation free energy, 298 K', -12.5),
  ('COc1cc(C(C)=O)cc(-c2cc(C(C)=O)cc(OC)c2O)c1O', 'solvation free energy, 298 K', -21.7),
  ('ClCCl', 'solvation free energy, 298 K', -4.05),
  ('C1=CCCCC1', 'solvation free energy, 298 K', -4),
  ('ClC(Cl)(Cl)Cl', 'solvation free energy, 298 K', -4.15),
  ('CC(C)=CC(C)(C)C', 'solvation free energy, 298 K', -4.39),
  ('CCCCc1ccccc1', 'solvation free energy, 298 K', -6.73);
